Tested on: upland rice (Oryza sp., var. Tebonnet, RICE)
Assay: Post-emerge test, crop safety
Assay type: in vivo
Settings: post-emerge, 63 g ai/ha, crop damage rating 0-100 at 14 days after application
readout.label: Post-emerge Herbicidal Activity RICE

| compound | readout.label | measured.value |
| --- | --- | --- |
| COc1ccccc1COC(=O)Nc1c(C)c(Cl)cc(F)c1-n1c(=O)cc(C(F)(F)F)n(C)c1=O | Post-emerge Herbicidal Activity RICE | 60 |
| Cc1nn(-c2c(Cl)cc(Cl)cc2NC(=O)c2ccc(F)cc2F)c(=O)n1C(F)F | Post-emerge Herbicidal Activity RICE | 10 |
| Nc1c(O)c(Cl)cc(F)c1N1C(=O)C2CCCCN2C1=S (single isomer, unassigned) [12-3] | Post-emerge Herbicidal Activity RICE | 0 |
| Nc1c(O)c(Cl)cc(F)c1N1C(=O)C2CCCCN2C1=S (single isomer, unassigned) [12-2] | Post-emerge Herbicidal Activity RICE | 20 |

Data provenance: patent US6355799B1
